- study_system: TurtOBP1
- assay_comment: fluorescent probe titration (blue shift) with purified recombinant protein
- Assay type: binding, Tetranychus urticae
reported_metric: Kd (µM)
Expressed in µM, but write only the number.

Query: I have this compound here, c1ccc(Nc2cccc3ccccc23)cc1 [1-NPN] , and I need its recorded Kd.
Result: 9.7

----------
- study_system: TurtOBP1
- assay_comment: competitive fluorescence binding assay, displacement of 1-NPN
- Design: species or system Tetranychus urticae
reported_metric: pKd
# log scale: pKd equals minus log10 of the concentration in mol/L

Query: Give recorded pKd with TurtOBP1 for the following compound: COc1cc(/C=C/C=O)ccc1O [coniferyl aldehyde]
Result: 5.01

----------
- study_system: TurtOBP4
- assay_comment: competitive fluorescence binding assay, displacement of 1-NPN
- Parameters: species or system Tetranychus urticae
reported_metric: pKd
# log scale: pKd equals minus log10 of the concentration in mol/L

Query: I have this compound here, "COc1cc(/C=C/C=O)ccc1O" , and I need its recorded pKd.
Result: 5.19

----------
- study_system: TurtOBP4
- assay_comment: fluorescent probe titration (blue shift) with purified recombinant protein
- Format: binding, Tetranychus urticae
reported_metric: Kd (µM)
Expressed in µM, but write only the number.

Query: I have this compound here, "c1ccc(Nc2cccc3ccccc23)cc1" , and I need its recorded Kd.
Result: 3.5
